The reported measurements were obtained from ChEMBL document CHEMBL1128617.

system: Artemia; assay: In vitro antiparasitic activity in brine shrimp assay; assay type: functional
Provide the recorded IC100 for the entries that follow.
Please append the unit to your numeric answer.

Batch request: IC100 for each of the following compounds.
1. CCC(C)[C@H]1O[C@]2(C=C[C@@H]1C)C[C@@H]1C[C@@H](C/C=C(\C)[C@@H](O[C@H]3C[C@H](OC)[C@@H](O[C@H]4C[C@H](OC)[C@@H](N)[C@H](C)O4)[C@H](C)O3)[C@@H](C)/C=C/C=C3\CO[C@@H]4[C@H](O)C(C)=C[C@@H](C(=O)O1)[C@]34O)O2 (stereo not given in full)
2. CCC(C)[C@H]1O[C@]2(C=C[C@@H]1C)C[C@@H]1C[C@@H](C/C=C(\C)[C@@H](O[C@H]3C[C@H](OC)[C@@H](O[C@H]4C[C@H](OC)[C@@H](NC(C)=O)[C@H](C)O4)[C@H](C)O3)[C@@H](C)/C=C/C=C3\CO[C@@H]4[C@H](O)C(C)=C[C@@H](C(=O)O1)[C@]34O)O2 (stereo not given in full)

2600 ng/mL
325 ng/mL
